- target or test system: Histidine protein kinase DivJ (Caulobacter vibrioides (strain ATCC 19089 / CB15) (Caulobactercrescentus)) (UniProt Q03228)
- Sequence (Q03228 whole entry, the tested form may be a part): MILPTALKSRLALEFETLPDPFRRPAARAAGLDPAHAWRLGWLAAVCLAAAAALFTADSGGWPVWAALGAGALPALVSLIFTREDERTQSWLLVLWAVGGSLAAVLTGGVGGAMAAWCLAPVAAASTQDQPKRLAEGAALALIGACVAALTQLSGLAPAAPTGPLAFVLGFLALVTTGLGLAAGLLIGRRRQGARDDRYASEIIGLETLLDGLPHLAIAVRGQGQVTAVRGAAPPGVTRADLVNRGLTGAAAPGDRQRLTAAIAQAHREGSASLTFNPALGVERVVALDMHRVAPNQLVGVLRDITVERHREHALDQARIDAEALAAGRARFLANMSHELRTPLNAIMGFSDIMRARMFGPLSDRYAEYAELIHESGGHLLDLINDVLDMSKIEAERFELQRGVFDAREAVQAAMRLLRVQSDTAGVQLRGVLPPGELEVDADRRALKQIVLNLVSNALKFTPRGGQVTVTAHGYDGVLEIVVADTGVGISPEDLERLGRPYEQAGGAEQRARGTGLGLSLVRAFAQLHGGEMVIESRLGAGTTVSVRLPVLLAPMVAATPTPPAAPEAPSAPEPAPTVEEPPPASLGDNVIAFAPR
- test method notes: Inhibition of recombinant Caulobacter vibrioides N-terminal His6-tagged DHp-catalytic domain DivJ (188 to 585 residues) autophosphorylation expressed in Escherichia coli BL21(DE3) at 500 uM preincubated for 10 mins followed by [gamma-32P]-ATP addition after 15 mins by phosphotransferase dot blot assay relative to control
- Design: scale not given: the % may be the effect or the level left
metric name: Activity (%)
Supply the numeric figure in %, leaving out any unit text.

Some solved entries appear below for comparison.
Using the record for CCNC(=O)c1noc(-c2cc(C(C)C)c(O)cc2O)c1-c1ccc(CN2CCOCC2)cc1 [LUMINESPIB] , state its measured Activity.
109

State its Activity for this compound: COc1c(C)cnc(Cn2cnc3c(Cl)nc(N)nc32)c1C [BIIB021]
128

Report Activity, nothing else, for this compound: COc1ccc(-c2c(C)n[nH]c2-c2cc(Cl)c(O)cc2O)cc1
118

Note down Activity recorded for CCc1cc(-c2n[nH]c(C)c2-c2ccc(OC)cc2)c(O)cc1O
118

Return Activity (reported value) for this compound: CN(C)c1cc2c(cc1Sc1nc3c(N)nccc3n1CCNCC(C)(C)C)OCO2 [CUDC-305]
96

New cases:
Look up and state reported Activity for C[C@@H]1C[C@H]2O[C@@H]2/C=C\C=C\C(=O)Cc2c(Cl)c(O)cc(O)c2C(=O)O1 [RADICICOL]
123

Given the compound CCc1cc(-c2[nH]nc(C)c2-c2ccc3c(c2)OCCO3)c(O)cc1O , write its reported Activity.
70

Return value of Activity for input COc1ccc(-c2c(-c3ccc(O)cc3O)n[nH]c2C)cc1 , no commentary.
117

Given CC(C)NCCCn1c(Sc2cc3c(cc2I)OCO3)nc2c(N)ncnc21 [PU-H71] , respond with its Activity.
122

----------
Quick reference for Activity among some compounds
- target or test system: Histidine protein kinase DivJ (Caulobacter vibrioides (strain ATCC 19089 / CB15) (Caulobactercrescentus)) (UniProt Q03228)
- test method notes: Inhibition of recombinant Caulobacter vibrioides N-terminal His6-tagged DHp-catalytic domain DivJ (188 to 585 residues) autophosphorylation expressed in Escherichia coli BL21(DE3) at 500 uM preincubated for 10 mins followed by [gamma-32P]-ATP addition after 15 mins by phosphotransferase dot blot assay relative to control
- Set-up: scale not given: the % may be the effect or the level left
Numbers only; they are read as %.

In the examples that follow, each entry is paired with its recorded Activity.
Output Activity of Oc1cc(O)c(-c2[nH]ncc2-c2ccc3c(c2)OCCO3)cc1Cl
117

Specify measured Activity for Cc1[nH]nc(-c2cc(Cl)c(O)cc2O)c1-c1ccc2c(c1)OCCO2 .
113

Hello, please tell me recorded Activity for this one: Oc1cc(O)c(-c2n[nH]cc2-c2ccccc2)cc1Cl
92

# return recorded Activity for input COc1ccc(-c2c[nH]nc2-c2ccc(O)cc2O)cc1
85

Supply recorded Activity for Cc1n[nH]c(-c2cc(Cl)c(O)cc2O)c1-c1ccccc1 here.
115

Others:
Given the compound COc1ccc(-c2c[nH]nc2-c2cc(Cl)c(O)cc2O)cc1 , write its reported Activity.
112

----------
- target or test system: Sensor protein kinase WalK (Staphylococcus epidermidis (strain ATCC 35984 / RP62A))
- Sequence (Q5HK19 whole entry): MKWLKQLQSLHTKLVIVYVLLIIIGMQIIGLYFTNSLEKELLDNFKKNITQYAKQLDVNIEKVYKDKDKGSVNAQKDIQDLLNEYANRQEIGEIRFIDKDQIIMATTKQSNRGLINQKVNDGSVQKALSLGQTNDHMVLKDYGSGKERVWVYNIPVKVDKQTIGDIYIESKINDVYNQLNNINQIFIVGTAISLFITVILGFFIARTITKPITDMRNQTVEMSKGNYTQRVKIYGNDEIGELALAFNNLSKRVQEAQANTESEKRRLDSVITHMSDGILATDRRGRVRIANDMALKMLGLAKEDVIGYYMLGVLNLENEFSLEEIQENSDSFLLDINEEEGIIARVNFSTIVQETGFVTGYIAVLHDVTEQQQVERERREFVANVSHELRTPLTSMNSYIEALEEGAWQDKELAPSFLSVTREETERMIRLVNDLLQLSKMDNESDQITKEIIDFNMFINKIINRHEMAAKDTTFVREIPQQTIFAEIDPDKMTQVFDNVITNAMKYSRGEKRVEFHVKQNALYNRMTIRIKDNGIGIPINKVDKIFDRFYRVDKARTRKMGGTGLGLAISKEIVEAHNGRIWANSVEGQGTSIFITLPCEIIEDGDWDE
- test method notes: Inhibition of recombinant Staphylococcus epidermidis ATCC 35984 N-terminal GB1-tagged YycG expressed in Escherichia coli BL21 (DE3) preincubated for 30 mins followed by ATP addition after 30 mins by kinase-glo assay
metric name: pIC50
Remember, pIC50 is on a log scale: it is -log10 of the molar concentration.

Give me measured pIC50, please, for this molecule: O=C(O)c1cccc(-c2ccc(/C=c3\sc4n(c3=O)C(c3ccc(F)cc3)C=C(c3ccccc3)N=4)o2)c1 (stereo unspecified)
4.62

----------
- target or test system: Virulence sensor histidine kinase PhoQ (Salmonella typhimurium (strain LT2 / SGSC1412 / ATCC 700720))
- Sequence (P0DM80 whole entry, the tested form may be a part): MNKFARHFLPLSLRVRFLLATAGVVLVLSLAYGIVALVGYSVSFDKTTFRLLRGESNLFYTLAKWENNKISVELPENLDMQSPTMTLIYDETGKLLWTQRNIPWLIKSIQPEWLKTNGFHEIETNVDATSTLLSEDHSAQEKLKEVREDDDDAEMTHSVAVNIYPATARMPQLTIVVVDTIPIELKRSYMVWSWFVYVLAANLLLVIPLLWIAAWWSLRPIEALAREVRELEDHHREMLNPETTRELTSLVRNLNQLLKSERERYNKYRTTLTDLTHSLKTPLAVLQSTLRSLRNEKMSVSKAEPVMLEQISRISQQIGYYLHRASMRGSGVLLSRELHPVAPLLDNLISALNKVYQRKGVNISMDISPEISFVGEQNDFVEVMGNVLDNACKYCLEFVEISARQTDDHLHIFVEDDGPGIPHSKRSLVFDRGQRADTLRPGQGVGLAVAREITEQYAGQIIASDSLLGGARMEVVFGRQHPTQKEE
- test method notes: Displacement of TNP-ATP from recombinant Salmonella typhimurium GST-tagged DHp-catalytic domain PhoQ (332 to 487 residues) expressed in Escherichia coli XA90 aafter 10 mins by fluorescence assay
- Design: species or system Salmonella enterica subsp. enterica serovar Typhimurium
metric name: pKd
pKd (log units): -log10 of the concentration in mol/L.

Return pKd for the following compound: CC(C)=CCc1c(O)cc2occ(Cl)c(=O)c2c1O
3.41

----------
- test method notes: Hemolytic activity against sheep RBC at 0.5 mM after 30 mins relative to control
- Type: ADME, cell-based, Ovis aries, Erythrocyte
- recorded conditions: sheep red blood cells (erythrocytes), read-out: Activity
hemolysis at 0.5 h, 500 µM overview
Response body: numeric value in %, unit text excluded.

The examples below pair each entry with its known result.
Please look at this compound and report its hemolysis at 0.5 h, 500 µM: CN(C)c1cc2c(cc1Sc1nc3c(N)nccc3n1CCNCC(C)(C)C)OCO2
3

Return hemolysis at 0.5 h, 500 µM for the following compound: COc1ccc(-c2c[nH]nc2-c2ccc(O)cc2O)cc1
3

Look up and report measured hemolysis at 0.5 h, 500 µM for this entry: Cc1[nH]nc(-c2cc(Cl)c(O)cc2O)c1-c1ccccc1
1

Further cases:
Read the entry Cc1[nH]nc(-c2cc(Cl)c(O)cc2O)c1-c1ccc2c(c1)OCCO2 and write its reported hemolysis at 0.5 h, 500 µM.
2

Please give measured hemolysis at 0.5 h, 500 µM of the following entry: COc1c(C)cnc(Cn2cnc3c(Cl)nc(N)nc32)c1C
6

----------
- target or test system: Cell cycle histidine kinase CckA (Caulobacter vibrioides, UniProt Q9X688)
- Sequence (Q9X688 as listed by the source): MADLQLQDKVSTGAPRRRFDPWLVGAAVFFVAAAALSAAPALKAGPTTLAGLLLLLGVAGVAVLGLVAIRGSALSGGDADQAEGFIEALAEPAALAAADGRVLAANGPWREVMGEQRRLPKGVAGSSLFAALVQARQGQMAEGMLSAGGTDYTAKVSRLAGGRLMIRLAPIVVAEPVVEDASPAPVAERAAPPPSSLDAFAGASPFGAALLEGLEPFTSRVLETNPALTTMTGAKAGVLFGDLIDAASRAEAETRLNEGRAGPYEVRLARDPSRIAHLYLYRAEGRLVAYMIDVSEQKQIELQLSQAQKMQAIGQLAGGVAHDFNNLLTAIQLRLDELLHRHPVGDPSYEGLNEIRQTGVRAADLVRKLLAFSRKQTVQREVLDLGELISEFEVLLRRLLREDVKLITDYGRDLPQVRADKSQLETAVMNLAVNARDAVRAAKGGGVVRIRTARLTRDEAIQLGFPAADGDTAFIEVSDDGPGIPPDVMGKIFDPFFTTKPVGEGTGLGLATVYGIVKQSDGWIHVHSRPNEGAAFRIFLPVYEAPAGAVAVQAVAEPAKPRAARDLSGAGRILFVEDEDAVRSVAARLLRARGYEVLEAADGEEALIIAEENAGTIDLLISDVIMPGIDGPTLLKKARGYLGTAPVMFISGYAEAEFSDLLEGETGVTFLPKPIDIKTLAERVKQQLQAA
- test method notes: Inhibition of recombinant Caulobacter vibrioides cell cycle histidine kinase CckA deltaTM mutant DHp domain (70 to 691 residues) expressed in Escherichia coli in presence of varying levels of ATP measured every 60 secs for 2 hrs by PK/LDH enzyme coupled assay
pIC50 reference
pIC50 here: minus log base 10 of the concentration, concentration in moles per litre.

Here is how some compounds turned out for pIC50.
Using the record for Oc1cc(O)c(-c2n[nH]cc2-c2ccccc2)cc1Cl , state its measured pIC50.
4.47

Specify pIC50 for Cc1[nH]nc(-c2cc(Cl)c(O)cc2O)c1-c1ccccc1 and stop.
4.76

Retrieve pIC50 measured for COc1ccc(-c2c[nH]nc2-c2ccc(O)cc2O)cc1 and print it.
4.24

Tell me pIC50 reported for COc1ccc(-c2c(-c3ccc(O)cc3O)n[nH]c2C)cc1
4.34

Return the recorded pIC50 value; entry: CCc1cc(-c2n[nH]c(C)c2-c2ccc(OC)cc2)c(O)cc1O
4.73

Answer with reported pIC50 of C[C@@H]1C[C@H]2O[C@@H]2/C=C\C=C\C(=O)Cc2c(Cl)c(O)cc(O)c2C(=O)O1
3.74

// moving on: another record for pIC50
Report pIC50, nothing else, for this compound: COc1ccc(-c2c[nH]nc2-c2cc(Cl)c(O)cc2O)cc1
4.49

----------
- target or test system: Cell cycle histidine kinase CckA (Caulobacter vibrioides)
- test method notes: Binding affinity to recombinant Caulobacter vibrioides cell cycle histidine kinase CckA delta 3 mutant DHp domain (190 to 562 residues) expressed in Escherichia coli assessed as change in metlting temperature at 30 uM after 2 mins by SYPRO orange dye based DSF assay
metric name: ΔTm (°C)
Report the value in °C with no unit label.

Solved entries:
Enter recorded ΔTm with Cell cycle histidine kinase CckA (Caulobacter vibrioides) for COc1ccc(-c2c[nH]nc2-c2ccc(O)cc2O)cc1 here.
3.5

Name the value of ΔTm reported for Oc1cc(O)c(-c2[nH]ncc2-c2ccc3c(c2)OCCO3)cc1Cl when tested on Cell cycle histidine kinase CckA (Caulobacter vibrioides).
3.3

Provide the reported ΔTm (system: Cell cycle histidine kinase CckA (Caulobacter vibrioides)) for CC(C)NCCCn1c(Sc2cc3c(cc2I)OCO3)nc2c(N)ncnc21 [PU-H71]
0.5

Give ΔTm only, for Cc1n[nH]c(-c2cc(Cl)c(O)cc2O)c1-c1ccccc1 , using Cell cycle histidine kinase CckA (Caulobacter vibrioides) data.
4.5

***
Lab note: record ΔTm of COc1ccc(-c2c(-c3ccc(O)cc3O)n[nH]c2C)cc1 tested on Cell cycle histidine kinase CckA (Caulobacter vibrioides).
2.5

Provide ΔTm, system Cell cycle histidine kinase CckA (Caulobacter vibrioides), entry CCNC(=O)c1noc(-c2cc(C(C)C)c(O)cc2O)c1-c1ccc(CN2CCOCC2)cc1 [LUMINESPIB]
1.8

Give Cell cycle histidine kinase CckA (Caulobacter vibrioides) ΔTm for the following compound: COc1c(C)cnc(Cn2cnc3c(Cl)nc(N)nc32)c1C [BIIB021]
0.7

Write ΔTm of Cc1[nH]nc(-c2cc(Cl)c(O)cc2O)c1-c1ccc2c(c1)OCCO2 ; system used: Cell cycle histidine kinase CckA (Caulobacter vibrioides)
5.3

Lab note: record ΔTm of C[C@@H]1C[C@H]2O[C@@H]2/C=C\C=C\C(=O)Cc2c(Cl)c(O)cc(O)c2C(=O)O1 [RADICICOL] tested on Cell cycle histidine kinase CckA (Caulobacter vibrioides).
0.9

Report ΔTm under test system Cell cycle histidine kinase CckA (Caulobacter vibrioides) for CCc1cc(-c2n[nH]c(C)c2-c2ccc(OC)cc2)c(O)cc1O .
4.1

Specify the recorded ΔTm for Nc1ncnc2c1ncn2[C@@H]1O[C@H](COP(=O)(O)OP(=O)(O)NP(=O)(O)O)[C@@H](O)[C@H]1O , system: Cell cycle histidine kinase CckA (Caulobacter vibrioides).
3.5

GET ΔTm | system: Cell cycle histidine kinase CckA (Caulobacter vibrioides) | item: COc1ccc(-c2c(C)n[nH]c2-c2cc(Cl)c(O)cc2O)cc1
5

Specify ΔTm for CN(C)c1cc2c(cc1Sc1nc3c(N)nccc3n1CCNCC(C)(C)C)OCO2 [CUDC-305] , system Cell cycle histidine kinase CckA (Caulobacter vibrioides).
0.4

State recorded ΔTm with Cell cycle histidine kinase CckA (Caulobacter vibrioides), entry CCc1cc(-c2[nH]nc(C)c2-c2ccc3c(c2)OCCO3)c(O)cc1O , no comment.
4

Provide Cell cycle histidine kinase CckA (Caulobacter vibrioides) ΔTm reading for Oc1cc(O)c(-c2n[nH]cc2-c2ccccc2)cc1Cl .
3.5

Look up and report ΔTm, with Cell cycle histidine kinase CckA (Caulobacter vibrioides) as system, for COc1ccc(-c2c[nH]nc2-c2cc(Cl)c(O)cc2O)cc1
4.2
